Data provenance: ChEMBL document CHEMBL3745709

- Tested on: Raoultella planticola
- assayProtocol: Antibacterial activity against Klebsiella planticola MTCC 530 assessed as inhibition zone after 24 hrs at 30 degC by well diffusion method
- Format: functional
- conditionNotes: MTCC 530, 24 h
Please go through the items and note down their MIC.

See these solved cases before continuing.
CCCCCC(=O)Nc1cc2c(cc1F)c(=O)c(C(=O)OCC)cn2CC: > 125 µg/mL
O=C(O)c1cn(C2CC2)c2cc(N3CCNCC3)c(F)cc2c1=O [CIPROFLOXACIN]: 0.9 µg/mL
CCCCCCCCCCCCCCCC(=O)Nc1cc2c(cc1F)c(=O)c(C(=O)OCC)cn2CC: > 125 µg/mL
CCCCCCCC/C=C/CCCCCCCC(=O)Nc1cc2c(cc1F)c(=O)c(C(=O)OCC)cn2CC: > 125 µg/mL
C=CCCCCCCCCC(=O)Nc1cc2c(cc1F)c(=O)c(C(=O)OCC)cn2CC: > 125 µg/mL

Batch of 4 compounds: report MIC for each.
1. CCCCCCCCCCCC(=O)Nc1cc2c(cc1F)c(=O)c(C(=O)OCC)cn2CC
2. CCCCCCCCCCCCCCCCCC(=O)Nc1cc2c(cc1F)c(=O)c(C(=O)OCC)cn2CC
3. CCCCCCCCCCCCCC(=O)Nc1cc2c(cc1F)c(=O)c(C(=O)OCC)cn2CC
4. CCCCCCCC(=O)Nc1cc2c(cc1F)c(=O)c(C(=O)OCC)cn2CC

> 125 µg/mL
> 125 µg/mL
> 125 µg/mL
> 125 µg/mL
